# Run Description: self-splicing fitness, log relative to wild type (ln ratio); higher = more splicing; Tetrahymena group I intron in knt gene, E. coli kanamycin selection, DiMSum; sequences stand for … in CUCUCU…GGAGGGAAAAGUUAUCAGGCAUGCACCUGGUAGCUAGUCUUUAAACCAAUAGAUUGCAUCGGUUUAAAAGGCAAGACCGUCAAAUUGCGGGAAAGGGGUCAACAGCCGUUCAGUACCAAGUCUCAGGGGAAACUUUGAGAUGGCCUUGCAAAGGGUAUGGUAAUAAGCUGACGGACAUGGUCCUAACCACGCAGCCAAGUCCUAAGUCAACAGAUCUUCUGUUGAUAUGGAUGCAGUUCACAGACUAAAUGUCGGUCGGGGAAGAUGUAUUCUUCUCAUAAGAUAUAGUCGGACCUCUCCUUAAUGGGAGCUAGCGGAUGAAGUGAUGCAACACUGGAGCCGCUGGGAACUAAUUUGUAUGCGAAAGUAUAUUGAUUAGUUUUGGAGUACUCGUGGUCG;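 also: selection with 25 µg/mL kanamycin versus none on LB agar overnight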
# Stated Conditions: 30 °C
Property Measured: self-splicing fitness (ln)

seq_text=UAUCAGCAAUAUUACGGGUC readout_value=-2.27
seq_text=UGGGAGCAAUAUUACGCAAG readout_value=-2.15
seq_text=CUACAGCAAUAUUACGUGUC readout_value=-3.95
seq_text=CUAAAGCAAUAUUACGGCAU readout_value=-3.69
seq_text=UUAAAGCAAUAUUACGAAAG readout_value=-1.66
seq_text=AGUGAGCAAUAUUACGGGAC readout_value=-4.1
seq_text=ACUCAGCAAUAUUACGCAGU readout_value=-3.55
seq_text=CCAAAGCAAUAUUACGUUUG readout_value=-2.93
seq_text=CUUAAGCAAUAUUACGUAAC readout_value=-3.05
seq_text=UACGAGCAAUAUUACGAGUG readout_value=-1.86
seq_text=AGAAAGCAAUAUUACGGACU readout_value=-0.691
